tested on: NClH1993; test: EZH2 inhibition sensitivity, NClH1993; format: cell-based; details: no mutations or info not available in SMARCA2, SMARCA4, KRAS, read-out: Compound D IC50
QUANTITY_MEASURED: pIC50
Answers are plain numbers, as −log10 of the molar value.

pIC50 recorded for this molecule, CCN(c1cc(-c2ccc(CN3CCOCC3)cc2)cc(C(=O)NCc2c(C)cc(C)[nH]c2=O)c1C)[C@H]1CC[C@H](N(C)C)CC1 [Compound D] , is 5.00

* * *

tested on: NCl-H23; test: EZH2 inhibition sensitivity, NCl-H23; type: cell-based; conditions: SMARCA2 mRNA/protein loss, SMARCA4 Mutations, KRAS Mutations, read-out: Compound D IC50
QUANTITY_MEASURED: IC50
Just the number plus its unit, please.

IC50 recorded for this compound, CCN(c1cc(-c2ccc(CN3CCOCC3)cc2)cc(C(=O)NCc2c(C)cc(C)[nH]c2=O)c1C)[C@H]1CC[C@H](N(C)C)CC1 [Compound D] , is 10 µM
